Potency for assorted compounds
study target: Cruzipain (Trypanosoma cruzi)
assay details: Confirmation qHTS Assay for Inhibitors of Cruzain; note: potency is the fitted concentration of half-maximal effect; nearly all actives have a fitted effect of over 40% in size
reported conditions: purified cruzain, Z-FR-AMC fluorescence, 0.01% Triton
Results filed as inconclusive are left out. The source made the active and inactive calls. Calls come from the whole dose curve; as a rule, active = well fitted inhibition curve with a large enough effect; inconclusive = small, poorly fitted or top-dose-only effect; inactive = no such curve, though single readings can be large or run the other way.

compound | Potency
COc1ccc(C(=O)C(C)OC(=O)CNC(=O)C2CCCCC2)cc1 (stereo not given) | 1.41 µM (active)
COc1cc(NC(=O)C(OC(=O)CNC(=O)c2ccccc2)c2ccccc2)c(OC)cc1Cl (stereo not given) | 11.2 µM (active)
N#Cc1ccc(NC(=O)COC(=O)CNC(=O)C2CCCCC2)cc1 | 14.1 µM (active)
CC(C)CCNC(=O)Cn1c(SCc2cccc(F)c2)nc2ccncc21 | 14.1 µM (active)
C=CCNC(=O)c1ccc2nc(-c3ccco3)c(-c3ccco3)nc2c1 | 15.8 µM (active)

Give reported Potency value for CCC(C)[C@@H](N)C(=O)N/N=C/c1ccc2ncccc2c1 (stereo not given in full)
22.4 µM (active)

For the compound CC1(C)Cc2c(C#N)c(N3CCN(C(=O)c4ccccc4)CC3)nc(-c3ccco3)c2CS1 , report Potency.
15.8 µM (active)

State its Potency: CCCCC(OC(=O)CNC(=O)c1ccccc1)C(=O)Nc1cc(C(F)(F)F)ccc1Cl (stereo not given)
8.91 µM (active)

Indicate the recorded Potency value for this compound: N#Cc1nc(NCC(F)F)c2ncn(-c3cccc(Cl)c3)c2n1
0.0891 µM (active)

// fetch Potency given entry Cn1c(=O)c2c(-c3ccccc3)n(-n3cnnc3)cc2n(C)c1=O
22.4 µM (active)
